Assay: Cmax in po dosed rat
Format: ADME, organism-based
Parameters: route po
Conditions: in vivo
value_kind: Cmax (ng/mL)

Cc1nc(Cc2c(-c3ccc(N4[C@@H](C)CC[C@@H]4C)nc3)nc3cccnn23)co1	220

[1] CCN(CC)c1ccc(-c2nc3ccccc3n2Cc2coc(C)n2)cn1
[2] CCN(CC)c1ccc(-c2nc3cccnn3c2Cc2coc(C)n2)cn1
Lab notebook, comparison: 1 versus 2 , higher Cmax goes to which? I would appreciate it if you answered with the label of your choice.
1

* * *

Assay: Clearance in po dosed rat
Assay type: ADME, organism-based
Details: in vivo
value_kind: clearance (mL/min/kg)

CCN(CC)c1ccc(-c2nc3cccnn3c2Cc2coc(C)n2)cn1	190
Cc1nc(Cc2c(-c3ccc(N4[C@@H](C)CC[C@@H]4C)nc3)nc3cccnn23)co1	180
CCN(CC)c1ccc(-c2nc3ccccc3n2Cc2coc(C)n2)cn1	160

* * *

Assay: AUC (0 to infinity) in po dosed rat
Type: ADME, organism-based
Design: route po
Conditions: in vivo
value_kind: AUC(0-inf) (ng·h/mL)

Cc1nc(Cc2c(-c3ccc(N4[C@@H](C)CC[C@@H]4C)nc3)nc3cccnn23)co1	108
CCN(CC)c1ccc(-c2nc3cccnn3c2Cc2coc(C)n2)cn1	94
CCN(CC)c1ccc(-c2nc3ccccc3n2Cc2coc(C)n2)cn1	126

* * *

Assay: Lipophilicity, log D of the compound at pH 7.4 by chromatographic method
Format: physicochemical
Conditions: buffer
value_kind: chromatographic logD

The examples below pair each entry with its known result.
CCN(CC)c1ccc(-c2nn3ccncc3c2Cc2coc(C)n2)cn1	4.9
CCN(CC)c1ccc(-c2nc3ccccc3n2Cc2coc(C)n2)cn1	5.1
CCOCCc1c(-c2ccc(N(CC)CC)nc2)ncc2ccccc12	7

[a] CCOCCc1cccnc1-c1ccc(N(CC)CC)nc1
[b] CCN(CC)c1ccc(-c2nc3nccnc3n2Cc2coc(C)n2)cn1
[c] CCOCCc1cc(-c2ccc(N(CC)CC)nc2)nc2ccccc12
Hey, can you sort those molecules up there by chromatographic logD, smallest first? List each label, following the requested order.
b, a, c

* * *

Experiment: Aqueous solubility of compound
Type: physicochemical
Settings: buffer
value_kind: solubility (µg/mL)

[P] CCOCCc1c(-c2ccc(N(CC)CC)nc2)c(=O)n(C)c2ccccc12
[Q] CCOCCc1c(-c2ccc(N(CC)CC)nc2)ncc2ccccc12
Of P and Q , which carries the smaller reported solubility figure? I would appreciate it if you answered with the label of your choice.
Q

[a] Cc1nc(Cc2c(-c3ccc(N4[C@@H](C)CC[C@@H]4C)nc3)nc3cccnn23)co1
[b] CCOCCc1cc2ccccc2nc1-c1ccc(N(CC)CC)nc1
Lab notebook, comparison: a versus b , higher solubility goes to which? I would appreciate it if you answered with the label of your choice.
a
(a: 80 µg/mL, b: 38 µg/mL)

* * *

Assay: Lipophilicity, log D of the compound at pH 7.4 by chromatographic method
Format: physicochemical
Conditions: buffer
value_kind: chromatographic logD

CCOCCn1ccnc1-c1ccc(N(CC)CC)nc1	4.2

[A] CCN(CC)c1ccc(-n2nc3ccccc3c2Cc2coc(C)n2)cn1
[B] CCN(CC)c1ccc(-c2nc3ncccn3c2Cc2coc(C)n2)cn1
Of A and B , which carries the smaller reported chromatographic logD figure? I would appreciate it if you answered with the label of your choice.
B

[I] Cc1nc(Cc2c(-c3ccc(N4[C@@H](C)CC[C@@H]4C)nc3)nc3cccnn23)co1
[II] CCOCCc1nc2ccccc2nc1-c1ccc(N(CC)CC)nc1
Lab notebook, comparison: I versus II , higher chromatographic logD goes to which? I would appreciate it if you answered with the label of your choice.
II

* * *

Experiment: Aqueous solubility of compound
Assay type: physicochemical
Settings: buffer
value_kind: solubility (µg/mL)

The examples below pair each entry with its known result.
CCOCCn1c(-c2ccc(N(CC)CC)nc2)nc2ccccc21	67
CCOCCc1c(-c2ccc(N(CC)CC)nc2)c(=O)[nH]c2ccccc12	19
CCN(CC)c1ccc(-c2nc3cnccn3c2Cc2coc(C)n2)cn1	169
CCN(CC)c1ccc(-c2nc3ccccc3n2Cc2coc(C)n2)cn1	65

[1] CCN(CC)c1ccc(-n2nc3ccccc3c2Cc2coc(C)n2)cn1
[2] CCN(CC)c1ccc(-c2nn3ccccc3c2Cc2coc(C)n2)cn1
Of 1 and 2 , which carries the smaller reported solubility figure? I would appreciate it if you answered with the label of your choice.
2
(2: 46 µg/mL, 1: 92 µg/mL)

* * *

Test: Lipophilicity, log D of the compound at pH 7.4 by chromatographic method
Format: physicochemical
Settings: buffer
value_kind: chromatographic logD

CCN(CC)c1ccc(-c2nc3ncncc3n2Cc2coc(C)n2)cn1	3

[P] CCOCCn1c(-c2ccc(N(CC)CC)nc2)nc2ccccc21
[Q] CCN(CC)c1ccc(-c2nc3cnccn3c2Cc2coc(C)n2)cn1
Lab notebook, comparison: P versus Q , higher chromatographic logD goes to which? I would appreciate it if you answered with the label of your choice.
P
(P: 6, Q: 4.2)

[a] CCN(CC)c1ccc(-c2nn3cccnc3c2Cc2coc(C)n2)cn1
[b] CCOCCc1cc(Cl)cnc1-c1ccc(N(CC)CC)nc1
Of a and b , which carries the smaller reported chromatographic logD figure? I would appreciate it if you answered with the label of your choice.
a

* * *

Experiment: Aqueous solubility of compound
Type: physicochemical
Conditions: buffer
Some molecules, each annotated with its measured solubility.

CCN(CC)c1ccc(-c2nc3cccnn3c2Cc2coc(C)n2)cn1	≥ 187 µg/mL

For the molecule shown here, CCN(CC)c1ccc(-c2nc3ncccn3c2Cc2coc(C)n2)cn1 , give the reported solubility.
≥ 112 µg/mL

For the molecule shown here, CCN(CC)c1ccc(-c2nn3ccncc3c2Cc2coc(C)n2)cn1 , give the reported solubility.
> 65 µg/mL

For the molecule shown here, CCN(CC)c1ccc(-c2nc3ncncc3n2Cc2coc(C)n2)cn1 , give the reported solubility.
≥ 119 µg/mL

For the molecule shown here, CCN(CC)c1ccc(-c2nn3cccnc3c2Cc2coc(C)n2)cn1 , give the reported solubility.
≥ 142 µg/mL

* * *

Test: Lipophilicity, log D of the compound at pH 7.4 by chromatographic method
Type: physicochemical
Details: buffer
value_kind: chromatographic logD

CCOCCc1c(-c2ccc(N(CC)CC)nc2)cnc2ccccc12	6.9
CCOCCc1c(-c2ccc(N(CC)CC)nc2)c(=O)n(C)c2ccccc12	6.2
CCOCCc1c(-c2ccc(N(CC)CC)nc2)c(=O)[nH]c2ccccc12	5
CCN(CC)c1ccc(-c2nc3cccnn3c2Cc2coc(C)n2)cn1	5
CCOCCc1cc2ccccc2nc1-c1ccc(N(CC)CC)nc1	7.2
CCOCCn1c(-c2ccc(N(CC)CC)nc2)nc(Br)c1Br	6.9
CCN(CC)c1ccc(-c2nn3ccccc3c2Cc2coc(C)n2)cn1	5.4
